Target: human muscarinic M4 receptor (Homo sapiens, UniProt P08173)
Construct: expressed in transfected cells
Sequence (P08173 whole entry): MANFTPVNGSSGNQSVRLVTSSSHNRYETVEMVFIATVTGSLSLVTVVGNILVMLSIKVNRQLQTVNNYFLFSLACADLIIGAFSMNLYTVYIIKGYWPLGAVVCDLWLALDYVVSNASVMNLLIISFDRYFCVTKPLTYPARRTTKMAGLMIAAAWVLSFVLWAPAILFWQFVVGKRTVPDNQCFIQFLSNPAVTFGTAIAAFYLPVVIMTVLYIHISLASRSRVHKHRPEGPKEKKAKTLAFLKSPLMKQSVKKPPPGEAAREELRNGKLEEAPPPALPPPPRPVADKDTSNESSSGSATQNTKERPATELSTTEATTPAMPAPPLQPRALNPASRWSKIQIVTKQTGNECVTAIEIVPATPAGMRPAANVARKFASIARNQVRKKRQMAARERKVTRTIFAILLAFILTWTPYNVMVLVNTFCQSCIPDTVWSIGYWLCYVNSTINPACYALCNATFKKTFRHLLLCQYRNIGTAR
Test: Alphascreen Surefire phospho-ERK1/2 functional assay, M4
Type: cell-based
Conditions: CHO cells stably expressing human M4; agonist 5 min, 37° C.
Measured parameter: pEC50 M4

Solved entries:
Ask | Which pEC50 M4 is reported for this molecule? CCN(CC)C(=O)C1C2CN(C3CC4COCC(C3)N4C(=O)OC)CC21 (single isomer, unassigned; isomer 2) [10-3 Isomer 2]
Reply | < 4.70

Ask | Subsequent entry: CCOC(=O)N1C2CCCC1CC(N1CC3C(C1)C3C(=O)N(C)CC)C2 (single isomer, unassigned; isomer 2) [9-1 Isomer 2]
Reply | < 4.70

Turning now to a further record.
Ask | Form field: reported pEC50 M4 of CCOC(=O)N1C2COCC1CC(N1CC3C(C1)C3C(=O)N(C)CC)C2 (single isomer, unassigned; isomer 1) [10-1 Isomer 1]
Reply | < 4.70
